experiment: Antioxidant activity assessed as superoxide anion radical scavenging activity incubated for 20 mins measured every 30 secs for 5 mins in presence of pyrogallol; assay type: functional
Measurement type: EC50 (µM)

1. CCC(=O)O[C@@H]1Cc2cc3c(c(O)c2-c2c(O)c4c(c(OC)c21)C(=O)c1c(O)cccc1C4=O)C(=O)O[C@H](C)C3 :: 754
2. CC(C)(C)c1cc(O)ccc1O :: 482
3. COc1c2c(c(O)c3c1[C@H](O)Cc1cc(CC(C)=O)c(C(=O)O)c(O)c1-3)C(=O)c1cccc(O)c1C2=O :: 681
4. COc1c2c(c(O)c3c1C(=O)c1c(O)cccc1C3=O)-c1c(cc3c(c1O)C(=O)OC(C)(OC)C3)CC2 (stereo not drawn) :: 139
5. COc1c2c(c(O)c3c1C(=O)c1c(O)cccc1C3=O)-c1c(cc3c(c1O)C(=O)O[C@H](C)C3)CC2 :: 1100
6. COc1c2c(c(O)c3c1[C@H](O)Cc1cc4c(c(O)c1-3)C(=O)O[C@H](C)C4)C(=O)c1cccc(O)c1C2=O :: 589
7. COc1c2c(c(O)c3c1C(=O)c1c(O)cccc1C3=O)-c1c(cc3c(c1O)C(=O)OC(C)(O)C3)CC2 (stereo not drawn) :: 83
8. COc1c2c(c(O)c3c1[C@H](OC(=O)C(C)C)Cc1cc4c(c(O)c1-3)C(=O)O[C@H](C)C4)C(=O)c1cccc(O)c1C2=O :: 746
